The reported measurements were obtained from patent US20140287419A1.

measurement protocol: 14C assay with IPTG-induced recombinant E. coli cells (14CO2 capture from [14C]-carboxyl-labeled dicamba)
run parameters: IPTG-induced recombinant E. coli cells; [14C]-carboxyl-labeled dicamba; 14CO2 capture
property measured: Dicamba Decarboxylase Activity

molecule | result
26 (protein, listed as Variovorax paradoxus) MATHMAPMKNKIALEEHFAIDLTIADSQVYARPEVWQGLKSNLLDFEQQRLEKMDEWGTEFSILSLNSPAVQGIPDAKRAIEVAQRANDVLAEQVKRHPTRFGGFAALPMQDPEASARELERCVNQLGFHGFLVNGFSQVGDENIVVYYDDARFNDFWTAAAALKKPFYMHPRDPLLAREPIYDGAHWLTGPTWAFAMETAIHALRLMSSGMFDRHPALQMILGHFGEGIPFNIWRVDHILRKGRRGMPCDKEIGEYLRSNVHITTSGNFRTPTLLSTMLEVGSDRIMYSVDYPFEKHEDAARWFDTCEISENDRQKIGRDNARKLFGLK | High
50 (protein, listed as Streptomyces sp.) MARIVTLEEHWTDPAVTAAGMPNLLDHVPGYAAAFDPDTGMPYPRHPELLEDLGAARIADMDRHGITTQVLSLVNTFLPADVAPRLTAAANDAMAAAVEAFPGRFAAFATLPTAVPGAAADELRRCVGELGFVGTMIMGRTDGEFLDQPRFDPILRAASDLSVPVYLHPAPPPVAVSEASYAGGLSPAVSAAFRLAAWGWHQETAVHLLHLVLAGVLDRYPGLQFVLGHWGEFIPFYLDRLDESMPRRMTGLDRTFREYFRDNVFITPSGMFSQAQLRYCADTVGTDRIIHSVDFPMLGNEGAVSFLTDSHLSREDQEKIAHGNADALLGLG | High
42 (protein, Agrobacterium radiobacter) MAQGKIALEEHFAIPDTLQDSAGFVPGDYWKELSARLLDIHEQRLMQMDAYGIEKMILSLNAPAVQAIPDKAKALEISRRANDFLAEQCARNPDRFLGFAALPLQDPDAATAELQRCVKTLGFVGALVNGFSQEGDGVTPLYYDLPQYRGFWAEVEKLAVPFYLHPRNPLPQDSRIYAGHPWLMGPTWAFAQETAVHALRLVGSGLFDDHPALRIILGHMGEGLPYMMWRIDNRNAWVKVAPNYPAKRRIADYFNENFYITTSGNFRTQSLVDAMLEIGADRILFSTDWPFENIDHASDWFDTATISEADRLKIGRTNAATLFNLES | Low
71 (protein, listed as Burkholderia dolosa) MARAGHRAARTRQSRPGDRTMTCSCCMSAGRRRVLGAFAALAGAPKGPRAASAAQPAAASKPTRGDATARNRHSRALLPGKASASWSATKASGSGGAFAWDDTTFTFRTPAGGLGPLPMKFIDVDARLRDMDASGVDVQALSLSVPMAYWGDRPFNAKLARAWNTAASRVHVRAPDRFVVLATLPMLDATDAIDELERASELPGVRGVYMGTNIDNRDLDDPRFAPVFARIEQLGLPVFLHPQQTVGGARLGDFYLSNLLGNPFDTAIAASHLILGGVLDRHPALHFTLPHAGGALPILVGRLDAGWTVRAETRRLAHQPSGYLRRFSYDTVSHSGPVLNFLIENVGIDRLVLGSDYCFDMGYEQPVRFLDRLDLTPDERAMVIGGNAGRLLRI | Low
